Each recorded value in this set is attributed to ChEMBL document CHEMBL3988442.

Tested on: Plasmodium falciparum
EXPERIMENTAL_DETAILS: Calibr Malaria Delayed Death Assay SOP
Format: functional, organism-based
Design: scale not given: in the data most compounds retested in dose-response had high values
CONDITIONS: concentration 4.99e-06 (unit not given; other assays of the set use mol/L)
The campaign covered roughly 38,000 compounds. About 1,200 (3.2%) showed an effect of 50% or more. The median lay at about -58%. Shown is part of a subset that was picked to be rich in strong results.
Mark each entry Met if its Percent Effect sits below -30%, and Not met for all others.

- COMPOUND_SMILES: "CN(Cc1nnc(C2CC2)n1C)S(=O)(=O)c1ccccc1F"
  MEASURED_TARGET: "Plasmodium falciparum"
  CLASSIFICATION: "Not met"
- COMPOUND_SMILES: "CCn1cc(CN2CCN(Cc3cc(C)cc(C)c3)C(=O)C2)cc1C#N"
  MEASURED_TARGET: "Plasmodium falciparum"
  CLASSIFICATION: "Not met"
- COMPOUND_SMILES: "Cc1cccc(NC(=O)[C@@H]2CCCN2Cc2nc3ccccc3o2)n1"
  MEASURED_TARGET: "Plasmodium falciparum"
  CLASSIFICATION: "Met"
- COMPOUND_SMILES: "COc1ccccc1CCNC(=O)N1CCC(n2cncn2)CC1"
  MEASURED_TARGET: "Plasmodium falciparum"
  CLASSIFICATION: "Met"

----------
Tested on: Plasmodium falciparum
EXPERIMENTAL_DETAILS: Calibr Malaria Delayed Death Assay SOP
Assay type: functional, organism-based
Set-up: scale not given: in the data most compounds retested in dose-response had high values
CONDITIONS: concentration 4.99e-06 (unit not given; other assays of the set use mol/L)
Hit rate of the full screen: of about 38,000 compounds, about 1,200 (3.2%) showed an effect of 50% or more. The median lay at about -58%. For the sample, strong results were picked, then their nearest neighbours and some compounds at random.

- COMPOUND: "CCOC(=O)CC1(Nc2nc(C)nc3c2cnn3C)CCCCC1"
  Percent Effect: "-28.38%"
- COMPOUND: "COc1ccc(F)c(CN2CCCC(O)(CNCc3ccon3)C2=O)c1 (configuration not stated)"
  Percent Effect: "-23.9%"
- COMPOUND: "CC(C)c1nnc2sc(CC3CN(C(C)C)CCO3)nn12 (configuration not stated)"
  Percent Effect: "-105.6%"
- COMPOUND: "O=C1N(Cc2cccc(F)c2F)CCCC1(O)CNCC1CCCCC1 (configuration not stated)"
  Percent Effect: "73.31%"
- COMPOUND: "CN(C)c1ncccc1CNCc1ccc(N2CCOCC2)cc1"
  Percent Effect: "-64.22%"
- COMPOUND: "CN(Cc1ccccc1)c1ncccc1CNC1CN2CCC1CC2 (configuration not stated)"
  Percent Effect: "62.39%"
- COMPOUND: "Cc1nc(NC2(CN3CCCCC3)CCCCC2)c2cnn(C)c2n1"
  Percent Effect: "54.86%"

----------
Tested on: Plasmodium falciparum
EXPERIMENTAL_DETAILS: Calibr Malaria Delayed Death Assay SOP
Assay type: functional, organism-based
Set-up: scale not given: in the data most compounds retested in dose-response had high values
CONDITIONS: concentration 4.99e-06 (unit not given; other assays of the set use mol/L)
Screen size: about 38,000 compounds; about 1,200 (3.2%) showed an effect of 50% or more. The median lay at about -58%. This is one part of a sample in which strong results are shown more often than they occur.

- MOLECULE: "OC1(CNc2ccc(F)cc2)CCNCC1"
  Percent Effect (%): 9.673
- MOLECULE: "O=C(c1cccnc1SC/C=C/c1ccccc1)N1CC[C@H](O)C1"
  Percent Effect (%): -73.62
- MOLECULE: "Cc1nc(CO[C@@H]2CC[C@H]3[C@H]2OCCN3Cc2cccnc2)cs1.O=C(O)C(F)(F)F.O=C(O)C(F)(F)F.O=C(O)C(F)(F)F"
  Percent Effect (%): -25.46
- MOLECULE: "Cc1cc(=O)[nH]c(=O)n1COCc1ccccc1"
  Percent Effect (%): -164.1
- MOLECULE: "O=C(NCCc1nccs1)C(c1ccccc1)n1cnnn1 (centres undefined)"
  Percent Effect (%): -126.4
- MOLECULE: "Cc1nccc(NCc2cncc3c2CCN(S(C)(=O)=O)C3)n1.Cl"
  Percent Effect (%): -112.1
- MOLECULE: "Cc1ccc(C)c(OCCN(C)C(=O)CCc2cn[nH]c2)c1"
  Percent Effect (%): -90.4
- MOLECULE: "CN(C)CCn1c2c(ccc1=O)CCN(C(=O)c1ccoc1)CC2.O=C(O)C(F)(F)F"
  Percent Effect (%): -90.05
- MOLECULE: "CN(CC1(O)CCCN(Cc2cccc(F)c2F)C1=O)C1CCCCC1 (centres undefined)"
  Percent Effect (%): 63.45
- MOLECULE: "CCOCC1CN(S(=O)(=O)CC)Cc2cnn(CC3CC3)c21.O=C(O)C(F)(F)F (centres undefined)"
  Percent Effect (%): -13.24
- MOLECULE: "Cc1cc(N2CCC(c3ncc[nH]3)CC2)cc(C)n1"
  Percent Effect (%): -30.44
- MOLECULE: "O=C(NC1CC1)C1CCN(c2cccc(C(F)(F)F)n2)CC1"
  Percent Effect (%): 78.5
- MOLECULE: "CCOCC1CN(C(=O)c2cccn2C)Cc2cnn(CC3CC3)c21.O=C(O)C(F)(F)F (centres undefined)"
  Percent Effect (%): 56.84
- MOLECULE: "CCOCC1CN(C(=O)c2cnccn2)Cc2cnn(CC3CC3)c21.O=C(O)C(F)(F)F (centres undefined)"
  Percent Effect (%): -137.9

----------
In this section we review reported Percent Effect values for a set of compounds.
Test system: Plasmodium falciparum
EXPERIMENTAL_DETAILS: Calibr Malaria Delayed Death Assay SOP
Assay type: functional, organism-based
Parameters: scale not given: in the data most compounds retested in dose-response had high values
CONDITIONS: concentration 4.99e-06 (unit not given; other assays of the set use mol/L)
In all, about 38,000 compounds went through this assay and about 1,200 (3.2%) showed an effect of 50% or more. The median lay at about -58%. Only a selection was taken, and strong results are over-represented in it overall.
METRIC_NAME: Percent Effect (%)

- COMPOUND: "Cc1cc2c(c(-c3c[nH]c(C)n3)c1)OC(CN)C2 (stereo not given)"
  QUANTITY_UNIT: "%"
  MEASURED_RESULT: 79.27
- COMPOUND: "Fc1ccc(C2(NCc3ccccc3)CCOCC2)cc1"
  QUANTITY_UNIT: "%"
  MEASURED_RESULT: 62.64
- COMPOUND: "CCOCC1CCN(C(=O)Nc2ccc3c(c2)CCCN3C)C1 (stereo not given)"
  QUANTITY_UNIT: "%"
  MEASURED_RESULT: 57.13
- COMPOUND: "Cl.Cl.O[C@@H]1C[C@@](CNCc2ccc(Cl)cc2)(COc2cccnc2)C[C@@H]1O"
  QUANTITY_UNIT: "%"
  MEASURED_RESULT: 70.01
- COMPOUND: "c1ccc(OCCNC2CCN(c3ncccn3)CC2)cc1"
  QUANTITY_UNIT: "%"
  MEASURED_RESULT: -18.18
- COMPOUND: "N#CC1COCCN1C(=O)c1ccc2cc[nH]c2c1 (stereo not given)"
  QUANTITY_UNIT: "%"
  MEASURED_RESULT: -76.07
- COMPOUND: "Cc1ccnc(N2CCC(NCCOc3ccccc3)CC2)n1"
  QUANTITY_UNIT: "%"
  MEASURED_RESULT: 9.901
- COMPOUND: "Cl.Cl.O[C@@H]1C[C@@](CNCc2cccc(Cl)c2)(COc2cccnc2)C[C@@H]1O"
  QUANTITY_UNIT: "%"
  MEASURED_RESULT: 34.26
- COMPOUND: "CSc1ccc(CNC2(c3ccc(F)cc3)CCOCC2)cc1"
  QUANTITY_UNIT: "%"
  MEASURED_RESULT: 28.49
- COMPOUND: "Cc1cc(N2CCC(NC(=O)CCc3ccco3)CC2)nc(C)n1"
  QUANTITY_UNIT: "%"
  MEASURED_RESULT: -35.38
- COMPOUND: "COc1ccc(CNc2c(N3CCN(C)CC3)c(=O)c2=O)cc1"
  QUANTITY_UNIT: "%"
  MEASURED_RESULT: -162.8
- COMPOUND: "Cc1ccc(C(CCNCCCN(C)C)C2CCOC(C)(C)C2)cc1.O=C(O)C(=O)O (stereo not given)"
  QUANTITY_UNIT: "%"
  MEASURED_RESULT: 83.16
- COMPOUND: "COc1ccccc1C1(CNc2nnc(C)c(C)c2C#N)CCCC1"
  QUANTITY_UNIT: "%"
  MEASURED_RESULT: 56.81
- COMPOUND: "O=C1CCNc2ccc(F)cc2CN1Cc1ccccc1"
  QUANTITY_UNIT: "%"
  MEASURED_RESULT: -35.83
- COMPOUND: "Cc1nc(CN2CCc3cnc(C(C)C)nc3C2)oc1C"
  QUANTITY_UNIT: "%"
  MEASURED_RESULT: -83.71
- COMPOUND: "O=C(COCCOc1ccccc1)NC1CCN(c2ncccn2)CC1"
  QUANTITY_UNIT: "%"
  MEASURED_RESULT: -10.36
- COMPOUND: "Cc1cc(N2CCC(N(C)C(=O)c3ccccc3)CC2)nc(C)n1"
  QUANTITY_UNIT: "%"
  MEASURED_RESULT: 16.92
- COMPOUND: "Cc1cc(N2CCC(N(C)C(=O)c3cccs3)CC2)nc(C)n1"
  QUANTITY_UNIT: "%"
  MEASURED_RESULT: -45.9
- COMPOUND: "CCn1ncc2c1C(COC)CN(Cc1cnn(C)c1)C2 (stereo not given)"
  QUANTITY_UNIT: "%"
  MEASURED_RESULT: -1.77
- COMPOUND: "CCCN(C(=O)CN1CCn2c(nnc2C2CC2)C1)C1=CCCCC1"
  QUANTITY_UNIT: "%"
  MEASURED_RESULT: -109.1
- COMPOUND: "CN(C)c1ccnc(N2CCC(NCCOc3ccccc3)CC2)n1"
  QUANTITY_UNIT: "%"
  MEASURED_RESULT: 59.77
- COMPOUND: "CCNC(=O)C1CCCN(C(=O)Nc2ccc3c(c2)CCCN3C)C1 (stereo not given)"
  QUANTITY_UNIT: "%"
  MEASURED_RESULT: 9.496
- COMPOUND: "CN(C)c1ncccc1CNCc1cccc(O)c1"
  QUANTITY_UNIT: "%"
  MEASURED_RESULT: -22.48
- COMPOUND: "O=c1[nH][nH]cc1-c1ccnc(NCCc2ccc(F)cc2)n1"
  QUANTITY_UNIT: "%"
  MEASURED_RESULT: -53.75
- COMPOUND: "CCc1ccc(S(=O)(=O)N2Cc3c(CN(C)C)nn(C)c3C2)cc1.O=C(O)C(F)(F)F"
  QUANTITY_UNIT: "%"
  MEASURED_RESULT: 62.16
- COMPOUND: "CN(C)CCCNCC1CCOC(C)(C)C1 (stereo not given)"
  QUANTITY_UNIT: "%"
  MEASURED_RESULT: 16.23
- COMPOUND: "CC(CCc1ccccc1)NC(=O)CNCCCN(C)C.O=C(O)C(=O)O (stereo not given)"
  QUANTITY_UNIT: "%"
  MEASURED_RESULT: -24.06
- COMPOUND: "Cc1cc(N2CCC(NC(C)Cc3ccsc3)CC2)nc(C)n1 (stereo not given)"
  QUANTITY_UNIT: "%"
  MEASURED_RESULT: 85.1
- COMPOUND: "CCOc1ccc(NC(C)C(=O)Nc2cc(C)no2)cc1 (stereo not given)"
  QUANTITY_UNIT: "%"
  MEASURED_RESULT: -61.09
- COMPOUND: "O=C(NCCCNC(=O)c1ccccc1)Nc1ccc(F)cc1F"
  QUANTITY_UNIT: "%"
  MEASURED_RESULT: -135.1
- COMPOUND: "CN(C)c1ccc(CNC2(c3ccc(F)cc3)CCOCC2)cc1F"
  QUANTITY_UNIT: "%"
  MEASURED_RESULT: 25.79
- COMPOUND: "CCOc1cccc(CNc2ccccc2OC)c1O"
  QUANTITY_UNIT: "%"
  MEASURED_RESULT: -50.26
- COMPOUND: "COc1ccc(S(=O)(=O)N2Cc3c(CN(C)C)nn(C)c3C2)cc1.O=C(O)C(F)(F)F"
  QUANTITY_UNIT: "%"
  MEASURED_RESULT: 40.82
- COMPOUND: "Cc1ccoc1C(=O)N1C[C@@H](OCC2CCOCC2)[C@H]2OCCC[C@H]21"
  QUANTITY_UNIT: "%"
  MEASURED_RESULT: 0.5559
- COMPOUND: "O=C(Nc1cccc2c1CCCC2)c1cccnc1N1CCCNCC1"
  QUANTITY_UNIT: "%"
  MEASURED_RESULT: 53.52
- COMPOUND: "CC1CN(c2ncccc2C(=O)Nc2cccc3c2CCCC3)CCN1 (stereo not given)"
  QUANTITY_UNIT: "%"
  MEASURED_RESULT: 10.16
- COMPOUND: "COc1ccccc1COCC(O)CN(C)Cc1cccc(Cl)c1 (stereo not given)"
  QUANTITY_UNIT: "%"
  MEASURED_RESULT: -103.6
- COMPOUND: "Cn1cc(NC(=O)CNC(=O)N2CCN(c3cccc(Cl)c3)CC2)cn1"
  QUANTITY_UNIT: "%"
  MEASURED_RESULT: -19.66
- COMPOUND: "COc1ccc(CNC(=O)c2ccc(Cl)cc2F)cc1C(=O)O"
  QUANTITY_UNIT: "%"
  MEASURED_RESULT: -124.3
- COMPOUND: "CNS(=O)(=O)c1cccc(C(C)NCc2ccccc2OC)c1 (stereo not given)"
  QUANTITY_UNIT: "%"
  MEASURED_RESULT: 86.21
